system: human spermatozoa; experiment: total motile sperm, percent change vs DMSO (non-capacitating); higher = more of the measured sperm population than DMSO, for viability, fewer PI-positive (dead) cells than DMSO; settings: incubation time: 6h incubation, 9.99 µM
Please provide measured total motile sperm for the entries that follow.
Quick note: unit goes after the number.

COc1cn(-c2ccc(-n3cccn3)cc2F)nc(-c2ccnn2-c2ccccc2)c1=O [Tak-063] | -15.5%
O=c1c(-c2ccc(O)cc2)coc2cc(O)cc(O)c12 [Genistein] | -0.945%
COc1cc(C(=O)N2CCC(N3CCN(C)CC3)CC2)ccc1Nc1ncc2c(n1)N(C)c1ccccc1C(=O)N2C [LRRK2-IN-1] | -11.9%

Let us move to another entry and its total motile sperm.
// query Which total motile sperm reading was recorded for the compound CCCCC/C=C\C/C=C\C/C=C\C/C=C\CCCC(=O)NCCO [Anandamide] ?
// result -4.78%

---

Please provide measured acrosome-reacted for the entries that follow.
tested on: human spermatozoa; assay: acrosome-reacted (PNA+) sperm after agonist cocktail, percent change vs DMSO (capacitating); higher = more of the measured sperm population than DMSO, for viability, fewer PI-positive (dead) cells than DMSO; details: incubation time: 3h; 29.9 µM; capacitating + agonist cocktail 1h
Counter-ions that a name gives are not always drawn.
Answers are plain numbers, in %.

Answered examples (2):
Cc1ccc(S(=O)(=O)c2ccc([N+](=O)[O-])o2)cc1 | 103
COc1cc(C(=O)N2CCC(N3CCN(C)CC3)CC2)ccc1Nc1ncc2c(n1)N(C)c1ccccc1C(=O)N2C | 103

Give measured acrosome-reacted for every item shown.
1. CCS(=O)(=O)Nc1ccc2c(c1)/C(=C(/Nc1ccc(CN3CCCCC3)cc1)c1ccccc1)C(=O)N2 [Hesperadin hydrochloride]
2. COc1ccc2nc([S@@+]([O-])Cc3ncc(C)c(OC)c3C)[nH]c2c1
3. CC(C)(C)c1ccc(S(=O)(=O)Nc2cnc3[nH]c(C(=O)N[C@H]4CCC[C@H]4O)c(-c4ccccc4)c3c2)cc1
4. N=C(N)Nc1ccc(C(=O)Oc2ccc3cc(C(=N)N)ccc3c2)cc1
5. O=S(=O)(NCCNC/C=C/c1ccc(Br)cc1)c1cccc2cnccc12 [H 89 dihydrochloride]

// result
[-37.5, 50.1, -40.6, 15.9, 11.9]

---

test system: HepG2; assay: HepG2 toxicity (resazurin), effect normalised to DMSO (DMSO = 0); higher = more features changed / larger toxic effect; details: incubation time: 70h incubation; 10 µM
Structures can show the parent of a compound that is named as a salt.
property_label: HepG2 toxicity (%)
Give bare numbers, in %.

Answered examples (4):
OCCN(CCO)c1nc(N2CCCCC2)c2nc(N(CCO)CCO)nc(N3CCCCC3)c2n1 | -2.63
O=C(Nc1ccc([N+](=O)[O-])cc1Cl)c1cc(Cl)ccc1O [Niclosamide] | -3.07
C[C@@H]1O[C@@H](O[C@H]2C[C@@H](O)[C@]3(CO)[C@H]4[C@H](O)C[C@]5(C)[C@@H](C6=CC(=O)OC6)CC[C@]5(O)[C@@H]4CC[C@]3(O)C2)[C@H](O)[C@H](O)[C@H]1O | 94.6
O.O.O.OO.OO.[K+].[OH-].[V].c1cnc2c(c1)ccc1cccnc12 | 28.8

Give measured HepG2 toxicity for every item shown.
1. CCCCN1C[C@@H](O)[C@H](O)[C@H](O)[C@@H]1CO
2. CCCCCCCCOc1ccc(-c2noc([C@@H]3CCCN3C(=N)N)n2)cc1C(F)(F)F
3. COC(=O)[C@]1(C)CC[C@]2(C)CC[C@]3(C)C4=CC=C5C(=CC(=O)C(O)=C5C)[C@]4(C)CC[C@@]3(C)[C@@H]2C1
4. COc1cc2c(cc1OC)-c1c/c(=N\c3c(C)cc(C)cc3C)n(C)c(=O)n1CC2 [Trequinsin hydrochloride]
5. C=C[C@@]1(C)CC(=O)[C@@]2(O)[C@](C)(O1)[C@@H](OC(C)=O)[C@@H](O)C1C(C)(C)CC[C@H](O)[C@@]12C (stereo not given in full)
6. Nc1ncnc2c1c(-c1cccc(OCc3ccccc3)c1)cn2[C@H]1C[C@@H](CN2CCC2)C1
7. O=c1c(-c2ccc(O)cc2)coc2cc(O)cc(O)c12
8. CNS(=O)(=O)c1ccccc1Nc1nc(Nc2ccc(C3CCN(C)CC3)cc2OC)ncc1Cl

// result
5.75
8.34
103
11.1
3.42
82.9
6.96
103

Give measured HepG2 toxicity for every item shown.
1. CC1(C)CC=C(c2ccccc2)c2cc(/C=C/c3ccc(C(=O)O)cc3)ccc21
2. N=C(N)Nc1nc2ccccc2[nH]1
3. COCC(=O)O[C@]1(CCN(C)CCCc2nc3ccccc3[nH]2)CCc2cc(F)ccc2[C@@H]1C(C)C

// result
1: 0.925; 2: 7.28; 3: 14

---

system: human spermatozoa; experiment: progressively motile sperm, percent change vs DMSO (non-capacitating); higher = more of the measured sperm population than DMSO, for viability, fewer PI-positive (dead) cells than DMSO; extreme values may be limits of the assay; details: incubation time: 6h incubation, 29.9 µM
Please provide measured progressively motile sperm for the entries that follow.
Quick note: unit goes after the number.

Give measured progressively motile sperm for every item shown.
1. COc1cc2nc(N(C)CCCNC(=O)C3CCCO3)nc(N)c2cc1OC (configuration not stated)
2. Nc1ncnc2c1c(-c1cccc(OCc3ccccc3)c1)cn2[C@H]1C[C@@H](CN2CCC2)C1
3. OCCN(CCO)c1nc(N2CCCCC2)c2nc(N(CCO)CCO)nc(N3CCCCC3)c2n1
4. COCC(=O)O[C@]1(CCN(C)CCCc2nc3ccccc3[nH]2)CCc2cc(F)ccc2[C@@H]1C(C)C
5. CC(C)(C)c1ccc(S(=O)(=O)Nc2ccc(OC(F)(F)F)c(F)c2-c2ccc(C(=O)O)c3ncccc23)cc1F
6. COc1cc(SC)ccc1C(=O)N1CCC(Cc2ccccc2)CC1
7. COC(=O)c1c(C)[nH]c(C)c1C(=O)c1ccccc1Cc1ccccc1

// result
1. 20.9%
2. 31.5%
3. 83.5%
4. 23.4%
5. -7.05%
6. 14.6%
7. 4.09%

---

tested on: HepG2; assay: HepG2 toxicity (resazurin), effect normalised to DMSO (DMSO = 0); higher = more features changed / larger toxic effect; conditions: incubation time: 70h incubation; 10 µM
property_label: HepG2 toxicity (%)
Numbers only, in %.

CNc1ccc2oc(C[C@H]3O[C@@]4(CC[C@H]3C)O[C@H]([C@H](C)C(=O)c3ccc[nH]3)[C@H](C)C[C@H]4C)nc2c1C(=O)O | 99.9
CNC(=O)c1ccccc1Nc1nc(Nc2ccc(N3CCOCC3)cc2OC)ncc1Cl [TAE226] | 92.5
COc1cc2nc(N(C)CCCNC(=O)C3CCCO3)nc(N)c2cc1OC (centres undefined) [Alfuzosin] | -1.03

Let us move to another entry and its HepG2 toxicity.
// query Which HepG2 toxicity reading was recorded for the compound CC(C)(O)c1ccn2c(-c3ccc(F)c(-c4ccc(F)cc4C#N)c3)cnc2c1F [TP 003] ?
// result 3.92

---

tested on: HeLa; assay: HeLa toxicity: nuclei-count effect normalised to DMSO (DMSO = 0); higher = more features changed / larger toxic effect; details: incubation time: 24h incubation; 9.99 µM
Please provide measured HeLa toxicity: nuclei-count effect normalised for the entries that follow.
Answers are plain numbers, in %.

CCCCCCCCCCCCCCCCOCC(COCC(F)(F)F)OP(=O)([O-])OC (configuration not stated) | 6.41
Cc1cc2c(C(C)C)c(O)c(O)c(C=O)c2c(O)c1-c1c(C)cc2c(C(C)C)c(O)c(O)c(C=O)c2c1O | 27.1
NC(=O)c1cc(-c2ccc(S(=O)(=O)[C@H]3CC[C@H](Nc4ccc(C(F)(F)F)cn4)CC3)cc2)ccn1 | 38.5

Give measured HeLa toxicity: nuclei-count effect normalised for every item shown.
1. CC(C)Cn1cnc2c(N)nc3ccccc3c21
2. [O-][S+](c1ccccc1)c1ccc2nnnn2n1 (configuration not stated)
3. CCOc1ccc(-c2nc(-c3cccc4c3CCC4NCCO)no2)cc1OCC (configuration not stated) [CYM 5442 hydrchloride]
4. COC(=O)[C@]1(C)CC[C@]2(C)CC[C@]3(C)C4=CC=C5C(=CC(=O)C(O)=C5C)[C@]4(C)CC[C@@]3(C)[C@@H]2C1

// result
1. 6.28
2. 43.7
3. -0.601
4. 98.7

---

tested on: human spermatozoa; test: progressively motile sperm, percent change vs DMSO (non-capacitating); higher = more of the measured sperm population than DMSO, for viability, fewer PI-positive (dead) cells than DMSO; extreme values may be limits of the assay; conditions: incubation time: 10min incubation, 29.9 µM
Structures can show the parent of a compound that is named as a salt.
property_label: progressively motile sperm (%)
One number for each entry, in %.

Answered examples (5):
Cc1sc2c(c1C)C(c1ccc(Cl)cc1)=N[C@@H](CC(=O)OC(C)(C)C)c1nnc(C)n1-2 | 21.5
CC(C)(O)c1ccn2c(-c3ccc(F)c(-c4ccc(F)cc4C#N)c3)cnc2c1F | 34.6
CN(C)CCCn1cc(C2=C(c3c[nH]c4ccccc34)C(=O)NC2=O)c2ccccc21 | 4.75
CNC(=O)c1ccccc1Nc1nc(Nc2ccc(N3CCOCC3)cc2OC)ncc1Cl | 34.5
C[C@]1(O)C[C@@H](c2nc(-c3ccc4ccc(-c5ccccc5)nc4c3)c3c(N)nccn32)C1 | 45.9

Give measured progressively motile sperm for every item shown.
1. CCCCC(CC)C/N=C(\N)N/C(N)=N/CCCCCC/N=C(\N)N/C(N)=N/CC(CC)CCCC (configuration not stated) [Alexidine dihydrochloride]
2. CCc1c(C)nc(SCC(=O)Nc2nc(-c3ccc(OC)cc3)cs2)[nH]c1=O
3. COc1ccc(CCCN2CCC(COC(c3ccccc3)c3ccccc3)CC2)cc1

// result
-99.9
6.45
-4.83

Give measured progressively motile sperm for every item shown.
1. CC(C)[C@H]1c2ccc(F)cc2CC[C@@]1(CCN(C)CCCc1nc2ccccc2[nH]1)OC(=O)C1CC1 [NNC 55-0396 dihydrochloride]
2. CC(=O)N1CCC(C(=O)N(CCCN2CCN(Cc3ccc(F)cc3)CC2)c2ccc(C)c(Cl)c2)CC1 [B07 hydrochloride]
3. CO[C@H]1[C@@H](OC)C[C@H](C)[C@@H](OC)C2=CC(=O)C=C(NC(=O)/C(C)=C/C=C/[C@H](OC)[C@@H](OC(N)=O)/C(C)=C/[C@@H]1C)C2=O
4. COc1cc(SC)ccc1C(=O)N1CCC(Cc2ccccc2)CC1
5. O=C(O)c1ccc(/C=C2/SC(=S)N(c3cccc(C(F)(F)F)c3)C2=O)cc1
6. Cc1ccc(S(=O)(=O)c2ccc([N+](=O)[O-])o2)cc1
7. CCS(=O)(=O)Nc1ccc2c(c1)/C(=C(/Nc1ccc(CN3CCCCC3)cc1)c1ccccc1)C(=O)N2 [Hesperadin hydrochloride]
8. Cc1ccc(S(=O)(=O)c2c(N)n(CC(O)c3ccc([N+](=O)[O-])cc3)c3nc4ccccc4nc23)cc1 (configuration not stated)

// result
1: -62.2; 2: -2.62; 3: -9.27; 4: -4.03; 5: -3.67; 6: -44.1; 7: -48.7; 8: 7.14

Give measured progressively motile sperm for every item shown.
1. [O]=[V]([O-])([O-])[O-] [Sodium orthovanadate]
2. O=c1c(-c2ccc(O)cc2)coc2cc(O)cc(O)c12
3. CCCCN1C[C@@H](O)[C@H](O)[C@H](O)[C@@H]1CO
4. C=C[C@@]1(C)CC(=O)[C@@]2(O)[C@](C)(O1)[C@@H](OC(C)=O)[C@@H](O)C1C(C)(C)CC[C@H](O)[C@@]12C (some centres not stated)
5. COc1cc2ncn(-c3cc(OCc4ccccc4C(F)(F)F)c(C(N)=O)s3)c2cc1OC

// result
1. 4.35
2. 2.04
3. 3.26
4. 0.86
5. -45.9

Give measured progressively motile sperm for every item shown.
1. CCCCC/C=C\C/C=C\C/C=C\C/C=C\CCCC(=O)NCCO [Anandamide]
2. COc1cc(C)c2c(Oc3cccc(C(F)(F)F)c3)c(OC)cc(NC(C)CCCN)c2n1 (configuration not stated)
3. O=C(c1cccs1)c1no[n+]([O-])c1C(=O)c1cccs1
4. CC1(C)CC=C(c2ccccc2)c2cc(/C=C/c3ccc(C(=O)O)cc3)ccc21
5. N=C(N)Nc1nc(-c2ccc(Cl)cc2)cs1 [n-[4-(4-Chlorophenyl)-1,3-thiazol-2-yl]guanidine]
6. CCc1cc(Nc2nccc(-c3c(-c4ccc(OC)c(C(=O)Nc5c(F)cccc5F)c4)nc4ccccn34)n2)c(OC)cc1N1CCC(N2CCN(S(C)(=O)=O)CC2)CC1
7. CCOc1ccc(-c2nc(-c3cccc4c3CCC4NCCO)no2)cc1OCC (configuration not stated) [CYM 5442 hydrchloride]
8. O=C(Nc1ccc([N+](=O)[O-])cc1Cl)c1cc(Cl)ccc1O [Niclosamide]

// result
[4.89, -94.3, -39.6, 5.98, 8.48, 2.77, 3.34, -27.6]
